# System: pAKT (T308) in T-47D cells (PI3Kα H1047R)
# measurementDescription: pAKT (T308) ELISA Assay
# Type: cell-based
# condition: Homo sapiens, T47D; IGF1 stimulation; read-out: Cellular pAKT (T308) IC50 PI3KαH1047R T-47D IGF1
pIC50: −log10 of the molar value.

{"compound": "Cc1nc2ncc(-c3ccc4c(c3)CN(c3nc(CN(C)C)nc5c3CC(C)(C)CC5)CCO4)cc2[nH]1 [Compound 693]", "pIC50": 7.14}
{"compound": "CCNc1nc2ccc(-c3ccc4c(c3)CN(c3ncnc(NCC)c3C)CCO4)cc2[nH]1 [Compound 699]", "pIC50": 6.68}
{"compound": "CCNc1nc2ccc(-c3ccc4c(c3)CN(c3ccnc5cc(F)ccc35)CCO4)cc2[nH]1 [Compound 698]", "pIC50": 6.59}
{"compound": "COc1ccc2c(N3CCOc4ccc(-c5cnc6nc(C)[nH]c6c5)cc4C3)nc(CN(C)C)nc2c1 [Compound 696]", "pIC50": 6.67}
{"compound": "Cc1nc2cc(-c3ccc4c(c3)CN(c3nc(CN(C)C)nc(C)c3C(C)C)CCO4)cnc2[nH]1 [Compound 694]", "pIC50": 6.99}
